Documented IC50 across a set of compounds
# Measured On: KRAS-G13D (Homo sapiens, UniProt P01116, G13D)
# Construct: N-terminal biotin-acceptor peptide […]
# Sequence (P01116 with tags, fused parts or gaps isoform P01116-2 G13D): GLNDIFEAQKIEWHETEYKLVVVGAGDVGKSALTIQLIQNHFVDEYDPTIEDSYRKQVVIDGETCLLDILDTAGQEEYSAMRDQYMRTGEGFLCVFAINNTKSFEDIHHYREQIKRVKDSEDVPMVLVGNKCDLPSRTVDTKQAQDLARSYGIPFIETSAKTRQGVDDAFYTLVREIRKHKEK
# Measurement Notes: SOS-catalyzed nucleotide exchange assay (Procedure A, TR-FRET)
# Protocol Conditions: 60 min preincubation, GTP, read-out: KRAS G13D GNE IC50

// solved cases for IC50 follow
N#Cc1c(N)sc2c(F)ccc(-c3c(Cl)cc4c(N5CCCOCC5)nc(OC[C@]5(CO)CC5(F)F)nc4c3F)c12 [Ex. 32]; 798 nM
CC1CCN(c2nc(OC[C@@]34CCCN3C[C@H](F)C4)nc3c(F)c(-c4ccc(F)c5sc(N)c(C#N)c45)c(Cl)cc23)CCO1 (stereo partly shown) [compound 10]; 110 nM
CN1CCC[C@H]1COc1nc(N2CCCOCC2)c2cc(Br)c(-c3ccc(F)c4sc(N)c(C#N)c34)c(F)c2n1 [compound 38]; 17.2 nM

Supply IC50 value. Item: N#Cc1c(N)sc2c(F)ccc(-c3c(Cl)cc4c(N5CCCOCC5)nc(OC[C@@]56CCCN5C[C@H](F)C6)nc4c3F)c12 [Ex. 4] 7.62 nM

Supply IC50 value. Item: CC(C)(C)NC[C@@]1(COc2nc(N3CCCOCC3)c3cc(Cl)c(-c4ccc(F)c5sc(N)c(C#N)c45)c(F)c3n2)CC1(F)F [compound 25] 52.9 nM

Supply IC50 value. Item: N#Cc1c(N)sc2c(F)ccc(-c3c(Br)cc4c(N5C6COCC5C6)nc(OC[C@@]56CCCN5C[C@H](F)C6)nc4c3F)c12 [Ex. 36] 20.2 nM
